All values here come from patent US20040198653A1.

system: pituitary adenoma cells; assay: Cell proliferation: CELLTITER 96 Aqueous (MTS/PMS) assay, number of viable cells; format: cell-based; conditions: 10^-9 M, 48 hours incubation, medium with 10% FBS, absorbance at 490 nm
Where a SMILES comes first, the peptide text is derived from it. Bridges are numbered along the chain shown (N, C = ends). [ ]: non-standard residue; d: D form. The star is where a group is joined. Gly(N-2-aminoethyl) = NCCNCC(=O)O; 3Pal = N[C@@H](Cc1cccnc1)C(=O)O; Tic = O=C(O)[C@@H]1Cc2ccccc2CN1; X1 = Nc1ccn(CC(=O)*)c(=O)n1; Abu = CC[C@H](N)C(=O)O; Bn = c1ccc(C*)cc1
measured-attribute: % Reduction Viable Cells (%)
Quick note: give the figure in %, leave out the unit.

Below: 3 compounds and their reported % Reduction Viable Cells.
C[C@H](N)C(=O)NCC(=O)N[C@H]1CSSC[C@@H](C(=O)O)NC(=O)[C@H](CO)NC(=O)[C@H]([C@@H](C)O)NC(=O)[C@H](Cc2ccccc2)NC(=O)[C@H]([C@@H](C)O)NC(=O)[C@H](CCCCN)NC(=O)[C@H](Cc2c[nH]c3ccccc23)NC(=O)[C@H](Cc2ccccc2)NC(=O)[C@H](Cc2ccccc2)NC(=O)[C@H](CC(N)=O)NC(=O)[C@H](CCCCN)NC1=O [SRIF, reference compound] = 8.
C[C@@H](OCc1ccccc1)[C@H](NC(=O)[C@H]1CSSC[C@@H](NC(=O)CN(CCN)C(=O)Cn2ccc(N)nc2=O)C(=O)N[C@@H](Cc2cccnc2)C(=O)N[C@H](Cc2c[nH]c3ccccc23)C(=O)N[C@@H](CCCCN)C(=O)N1)C(=O)N[C@@H](Cc1ccc(O)cc1)C(N)=O [Compound 1] (X1-[Gly(N-2-aminoethyl)][dC][3Pal][dW]K[dC]T(Bn)Y-NH2; disulfide 2-6) = 28.5
CC(C)[C@@H]1NC(=O)[C@H](CCCCN)NC(=O)[C@@H](Cc2c[nH]c3ccccc23)NC(=O)[C@H](Cc2ccc(O)cc2)NC(=O)[C@@H](NC(=O)[C@H](N)Cc2ccc3ccccc3c2)CSSC[C@@H](C(=O)N[C@H](C(N)=O)[C@@H](C)O)NC1=O [LANREOTIDE, reference compound] = 12.

Query block: Lab request: please report % Reduction Viable Cells under test system pituitary adenoma cells for CC[C@@H]1NC(=O)[C@H](CCCCN)NC(=O)[C@@H](Cc2c[nH]c3ccccc23)NC(=O)[C@H](Cc2ccc(O)cc2)NC(=O)[C@@H]2Cc3ccccc3CN2C(=O)[C@H](Cc2ccccc2)NC1=O [Compound 2, cyclo[Tic-Tyr-D-Trp-Lys-Abu-Phe]] (cyclo([Tic]Y[dW]K[Abu]F))
Result block: 12.5
